Data origin: paper PMC13242511

- target entity: γ-secretase complex (Homo sapiens, UniProt P49768)
- assay info: APP-C99 counter assay (GSI reporter assay)
- Format: cell-based
- experimental context: 14p APP assay DR; bottom constrained to Emax of positive control LY-411575
test readout: Hill-slope

Illustrative cases are given below, each with its answer.
INSERT INTO results (molecule, test_readout, observed_value) VALUES
  ('COc1cc(Nc2nc(-c3ccc(F)c(Cl)c3)cn3ccnc23)cc(OC)c1OC', 'Hill-slope', -0.9),
  ('CC(=O)N1CCc2sccc2C1c1ccccc1NCc1ccoc1 (stereo not drawn)', 'Hill-slope', -0.0118);

Quick one: give me Hill-slope for each item below, same order please.
1. c1ccc(-c2ccccc2CN2CCC3(CC2)OCCc2c3[nH]c3ccccc23)cc1
2. CC(C)C(=O)Nc1sc2c(c1C(=O)NCc1cccnc1)CCC2
3. CC(=O)Nc1cccc(-c2cn3ccnc3c(Nc3ccccc3)n2)c1
4. CCn1ccc(CN(CCOC)C(=O)c2cc3c(Cl)cccc3[nH]2)n1
5. COc1cc(-c2cn3ccnc3c(Nc3ccccc3)n2)cc(OC)c1OC

Given back:
1. 0.0232
2. -0.0106
3. -4.6e-12
4. 3.84e-13
5. -8.75e-10

The following molecules each have a reported value; give each one's Hill-slope.
1. COc1cc(Nc2nc(-c3cccc(NC(C)=O)c3)cn3ccnc23)cc(OC)c1OC
2. Cc1ccccc1Nc1nc(N)nc(CN2CCCC(C(F)(F)F)C2)n1 (stereo not drawn)

Given back:
0.0389
0.121

----------
- target entity: γ-secretase complex (Homo sapiens)
- assay info: APP-C99 counter assay (GSI reporter assay)
- Type: cell-based
- experimental context: 25µM; APP-C99 counter assay
- Protocol: To this end, we used a previously established reporter gene-based GSI assay (APP-C99) (Fig. 3A), which measures γ-secretase activity through cleavage of amyloid precursor protein (APP), another protein processed by the γ-secretase complex[24] […] A DMSO plate was read before measuring luciferase activity of compound spotted plates. […] The area-under-the-curve (AUC) was calculated on dose–response curves using Graphpad Prism.
test readout: 3p-DR in % of DMSO counter

INSERT INTO assay_data (molecule, test_readout, observed_value) VALUES
  ('NC(=O)c1c(NC(=S)NC(NC(=O)c2ccccc2)C(Cl)(Cl)Cl)sc2c1CCCC2 (centres unmarked)', '3p-DR in % of DMSO counter', '66.8 % of DMSO'),
  ('O=C(NC(Nc1cccc(C(F)(F)F)c1)C(=O)c1ccccc1)c1ccc(Cl)cc1 (centres unmarked)', '3p-DR in % of DMSO counter', '84.5 % of DMSO'),
  ('NC(=O)c1[nH]nc(C2OC(CO)C(O)C2O)c1O (centres unmarked)', '3p-DR in % of DMSO counter', '111.1 % of DMSO'),
  ('C[C@@H]1C(=O)O[C@H]2[C@H]1CC[C@@]1(C)Cc3sc(NC(=O)CCC(=O)O)nc3[C@@H](C)[C@H]21', '3p-DR in % of DMSO counter', '12.4 % of DMSO');

Hi team, please reply with 3p-DR in % of DMSO counter for each item in this list.
1. COc1ccc(-c2noc([C@@H]3Cc4[nH]cnc4CN3C(=O)CCC(=O)O)n2)cc1
2. COc1ccc2cc(C(=O)N3CCC(c4ccncc4)CC3)[nH]c2c1
3. O=C(Nc1ccc(O)c(-c2nc3ccccc3o2)c1)c1ccc(-c2ccc([N+](=O)[O-])cc2)o1

Given back:
1. 22.0 % of DMSO
2. 70.8 % of DMSO
3. 166.0 % of DMSO

For every listed record, write down its 3p-DR in % of DMSO counter.
1. FC(F)(F)CCN1CCC2(CC1)NCCc1c2[nH]c2ccc(Cl)cc12
2. CC(=O)Nc1cccc(-c2ccc(Nc3cccc(N(C)C)c3)nc2)c1
3. c1ccc2oc(CN3Cc4nc[nH]c4C[C@H]3c3nc(-c4ccc5c(c4)OCO5)no3)cc2c1
4. COc1ccc(N(CC(O)CN2CCOCC2)S(=O)(=O)c2ccccc2)cc1 (centres unmarked)
5. C[C@@H]1C(=O)O[C@H]2[C@H]1CC[C@@]1(C)Cc3sc(NC(=O)CN(C)C)nc3[C@@H](C)[C@H]21
6. CC(C)Nc1cncc(OCc2ccc(Cl)c(Cl)c2)n1
7. Nc1ccc(Sc2nccnc2N2CCCC2)cc1
8. COc1cc(Nc2cc(-c3ccccc3N(C)C)ncn2)cc(OC)c1OC

Given back:
1: 121.8 % of DMSO; 2: 38.9 % of DMSO; 3: 78.1 % of DMSO; 4: 76.7 % of DMSO; 5: 61.0 % of DMSO; 6: 19.5 % of DMSO; 7: 11.6 % of DMSO; 8: 225.5 % of DMSO

Dear colleague, could you send me 3p-DR in % of DMSO counter for each of the items below? Thanks.
1. Fc1cc(CN2CCC3(CC2)OCCc2c3[nH]c3ccc(Br)cc23)cc(F)c1F
2. Cc1ccc(NC(=O)c2cnc(SCc3ccc(F)cc3)n(C)c2=O)cc1C
3. COc1cccc(OCC2CCCN(C(=O)CCc3cnn(C)c3)C2)c1 (centres unmarked)

Given back:
["117.4 % of DMSO", "82.2 % of DMSO", "46.1 % of DMSO"]

Batch: 3p-DR in % of DMSO counter for all items listed.
1. O=C(Nc1sccc1C(=O)N1CCOCC1)C(Sc1ccccc1)c1ccccc1 (centres unmarked)
2. CCCC(=O)c1ccc(S(=O)(=O)N2CCN(Cc3csc(-c4ccccc4)n3)CC2)cc1
3. CCC(C)(C)c1ccc(S(=O)(=O)Nc2ccc3ncsc3c2)cc1
4. c1ccc2c(c1)CCN(c1nc3cc4c(cc3s1)OCCO4)C2
5. O=C(O)c1c2c(nc3ccccc13)C(=Cc1ccc3c(c1)OCCO3)CC2

Given back:
1: 58.2 % of DMSO; 2: 120.8 % of DMSO; 3: 59.5 % of DMSO; 4: 37.5 % of DMSO; 5: 13.7 % of DMSO
